system: isolated rat atrium; assay: antiarrhythmic effect, isolated rat atrium method of M. Libonati and G. Segre; conditions: Rattus norvegicus; 1·10^-6 g/lt; increase; read-out: Mean percent variation versus controls: rheobase (+%)
Can you tell me activation at 0.001 µg/mL for the items I'm about to list?
Dear colleague, please return just the value in %, with no unit written.

Task: Indicate its recorded activation at 0.001 µg/mL; the compound in question is CC(=O)CC(=O)OC(CC(=O)[O-])C[N+](C)(C)C (racemic) [acetoacetyl-d,l-carnitine]
Output: 3.01

Task: Output measured activation at 0.001 µg/mL for this item: CCCC(=O)OC(CC(=O)[O-])C[N+](C)(C)C (racemic) [butyryl-d,l-carnitine]
Output: 28.3

Task: Read the entry C=C[C@H]1C[N@@]2CC[C@H]1C[C@@H]2[C@@H](O)c1ccnc2ccc(OC)cc12 [Quinidine, reference compound] and write its reported activation at 0.001 µg/mL.
Output: 7.14

Task: Check the records and state activation at 0.001 µg/mL for CCCCCCCCCC(=O)OC(CC(=O)[O-])C[N+](C)(C)C (racemic) [decanoyl-d,l-carnitine]
Output: 3.12

Task: For the compound CCCCCCCCCCCCCCCCCC(=O)OC(CC(=O)[O-])C[N+](C)(C)C (racemic) [stearoyl-d,l-carnitine] , give its reported activation at 0.001 µg/mL.
Output: 1.85

Task: Supply reported activation at 0.001 µg/mL belonging to this compound: CCCCCCCC(=O)OC(CC(=O)[O-])C[N+](C)(C)C (racemic) [octanoyl-d,l-carnitine]
Output: 9.46

Task: Please supply the value of reported activation at 0.001 µg/mL for the item CCCCCC(=O)OC(CC(=O)[O-])C[N+](C)(C)C (racemic) [hexanoyl-d,l-carnitine]
Output: 6.2

----------
tested on: isolated rat atrium; test: antiarrhythmic effect, isolated rat atrium method of M. Libonati and G. Segre; conditions: Rattus norvegicus, read-out: Mean percent variation versus controls: refractory period (+%)
Measure: activation at 0.001 µg/mL (%)
Please give a number only; it is taken to be in %.

Task: Report activation at 0.001 µg/mL for C[N+](C)(C)CC(O)CC(=O)[O-] (racemic) [d,l-carnitine, γ-trimethyl amino β-hydroxy butyric acid]
Output: 18.3

Task: Hello, please tell me recorded activation at 0.001 µg/mL for this one: CCCCCCCCCCCCCCCC(=O)OC(CC(=O)[O-])C[N+](C)(C)C (racemic)
Output: 0

Task: Tell me measured activation at 0.001 µg/mL for CC(=O)OC(CC(=O)[O-])C[N+](C)(C)C (racemic) please.
Output: 14.5

Task: For the compound CCC(=O)OC(CC(=O)[O-])C[N+](C)(C)C (racemic) , report activation at 0.001 µg/mL.
Output: 8.16

----------
Test system: female rats
Assay: antifatigue effect: rota-rod
Assay type: in vivo, rat
Settings: Rattus norvegicus, ip, 0.25 h, 600 mg/kg i.p.; session 3 (every 15 minutes); read-out: percentage of animals staying on the rota-rod more than 180 seconds
Procedure: The antifatigue effect was also examined with the following results. The antifatigue effect was investigated by administering the compounds of the formula (I) according to the present application to female rats intraperitoneally in saline solution and saline solution alone to the controls by the same route. […] The percentage of the animals capable of staying on the rota-rod for a duration of more than 180 seconds was then recorded.
Measure: responders at 600 mg/kg (%)
Express the result in % but write the number alone.

Task: Provide measured responders at 600 mg/kg on female rats for CCCCCCCCCCCCCCCCCC(=O)OC(CC(=O)[O-])C[N+](C)(C)C (racemic) [stearoyl-d,l-carnitine] please.
Output: 10

Task: Identify measured responders at 600 mg/kg obtained with female rats for CC(=O)CC(=O)OC(CC(=O)[O-])C[N+](C)(C)C (racemic) [acetoacetyl-d,l-carnitine] .
Output: 20

Task: Please indicate recorded responders at 600 mg/kg of CCCCCC(=O)OC(CC(=O)[O-])C[N+](C)(C)C (racemic) [hexanoyl-d,l-carnitine] measured with female rats.
Output: 10

Task: Quote responders at 600 mg/kg with test system female rats for CCCCCCCC(=O)OC(CC(=O)[O-])C[N+](C)(C)C (racemic) [octanoyl-d,l-carnitine]
Output: 10

Task: Provide female rats responders at 600 mg/kg reading for CCCC(=O)OC(CC(=O)[O-])C[N+](C)(C)C (racemic) [butyryl-d,l-carnitine] .
Output: 10

Task: # return responders at 600 mg/kg of CCCCCCCCCC(=O)OC(CC(=O)[O-])C[N+](C)(C)C (racemic) [decanoyl-d,l-carnitine] (system: female rats)
Output: 0
